# target_under_test: recombinant human sEH (Homo sapiens, UniProt P34913)
# Sequence (P34913 whole entry): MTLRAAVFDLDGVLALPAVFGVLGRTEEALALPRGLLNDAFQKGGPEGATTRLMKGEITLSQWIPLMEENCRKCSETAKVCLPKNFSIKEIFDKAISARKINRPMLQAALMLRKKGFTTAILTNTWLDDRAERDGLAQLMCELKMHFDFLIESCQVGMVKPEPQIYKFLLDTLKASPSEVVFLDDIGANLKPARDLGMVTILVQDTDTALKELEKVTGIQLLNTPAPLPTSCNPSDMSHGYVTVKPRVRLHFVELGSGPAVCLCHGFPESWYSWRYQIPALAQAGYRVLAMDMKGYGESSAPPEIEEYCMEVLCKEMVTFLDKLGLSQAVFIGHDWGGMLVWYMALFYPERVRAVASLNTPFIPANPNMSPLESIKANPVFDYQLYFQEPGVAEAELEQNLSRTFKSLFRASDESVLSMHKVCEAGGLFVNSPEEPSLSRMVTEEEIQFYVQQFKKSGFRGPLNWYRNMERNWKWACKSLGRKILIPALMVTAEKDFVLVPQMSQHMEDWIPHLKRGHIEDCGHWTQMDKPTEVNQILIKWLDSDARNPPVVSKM
# test_protocol: In vitro evaluation test for sEH inhibitory activity
# details: recombinant human sEH 0.026 μg/mL, fluorescent substrate 6.25 μmol/L, room temperature
measured_endpoint: IC50 (nM)
Please state the figure in nM; there is no need to write the unit.

Retrieve IC50 measured for CC(C)(NS(C)(=O)=O)C(=O)N1CCC[C@@H](C(=O)NCc2ccc(Cl)cc2OCC(F)(F)F)C1 and print it.
2.6

Retrieve IC50 measured for CC(=O)N[C@@H](C(=O)N1CCC[C@@H](C(=O)NCc2ccc(C#N)cc2OC(F)(F)F)C1)C(C)(C)O and print it.
1.4

----------
# target_under_test: recombinant human sEH (Homo sapiens, UniProt P34913)
# test_protocol: In vitro evaluation test for sEH inhibitory activity
# details: recombinant human sEH 0.026 μg/mL, fluorescent substrate 6.25 μmol/L, room temperature
So I've got a bunch of compounds here, and I need their pIC50 values.
Please report pIC50 as the negative decimal logarithm of the molar concentration, giving only the number.

Retrieve pIC50 measured for CC[C@@H](O)C(=O)N1CCC[C@@H](C(=O)NCc2ccc(C#N)cc2OC(F)(F)F)C1 [Example Compound 43] and print it.
8.92

Retrieve pIC50 measured for CN(C1(C(=O)N2CCC[C@@H](C(=O)NCc3ccc(C#N)cc3OC(F)(F)F)C2)CC1)S(C)(=O)=O [Example Compound 18] and print it.
8.80

Retrieve pIC50 measured for CC(C)(NS(C)(=O)=O)C(=O)N1CCC[C@@H](C(=O)NCc2ccc(C(N)=O)cc2OC(F)(F)F)C1 [Example Compound 14] and print it.
8.82

Retrieve pIC50 measured for N#Cc1ccc(CNC(=O)[C@@H]2CCCN(C(=O)C3(O)CCCCC3)C2)c(OC(F)(F)F)c1 [Example Compound 20] and print it.
9.15

Retrieve pIC50 measured for CC(=O)N[C@@H](C(=O)N1CCC[C@@H](C(=O)NCc2ccc(Cl)cc2Cl)C1)C(C)(C)O [Example Compound 39] and print it.
9.15

Retrieve pIC50 measured for CC(=O)NC1(C(=O)N2CCC[C@@H](C(=O)NCc3ccc(C#N)cc3OC(F)(F)F)C2)CCCC1 [Example Compound 8] and print it.
8.77

Retrieve pIC50 measured for N#Cc1ccc(CNC(=O)[C@@H]2CCCN(C(=O)C3(NC(=O)C4CC4)CCC3)C2)c(OC(F)(F)F)c1 [Example Compound 29] and print it.
8.77

----------
# target_under_test: recombinant human sEH (Homo sapiens, UniProt P34913)
# test_protocol: In vitro evaluation test for sEH inhibitory activity
# details: recombinant human sEH 0.026 μg/mL, fluorescent substrate 6.25 μmol/L, room temperature
So I've got a bunch of molecules here, and I need their IC50 values.
Please state the figure in nM; there is no need to write the unit.

Retrieve IC50 measured for CC[C@@H](NS(C)(=O)=O)C(=O)N1CCC[C@@H](C(=O)NCc2ccc(C#N)cc2OC(F)(F)F)C1 [Example Compound 22] and print it.
0.5

Retrieve IC50 measured for CS(=O)(=O)NC1(C(=O)N2CCC[C@@H](C(=O)NCc3ccc(C#N)cc3OC(F)(F)F)C2)CC1 [Example Compound 3] and print it.
3.5

Retrieve IC50 measured for CC(C)(NS(C)(=O)=O)C(=O)N1CCC[C@@H](C(=O)NCc2ccc(C#N)cc2OC(F)(F)F)C1 [Example Compound 2] and print it.
2.1

Retrieve IC50 measured for CC(C)C(=O)NC1(C(=O)N2CCC[C@@H](C(=O)NCc3ccc(C#N)cc3OC(F)(F)F)C2)CCC1 [Example Compound 6] and print it.
1

Retrieve IC50 measured for CC(C)(C)C(=O)NC1(C(=O)N2CCC[C@@H](C(=O)NCc3ccc(C#N)cc3OC(F)(F)F)C2)CCC1 [Example Compound 7] and print it.
0.8

Retrieve IC50 measured for CC(=O)N[C@H](C)C(=O)N1CCC[C@@H](C(=O)NCc2ccc(C#N)cc2OC(F)(F)F)C1 [Example Compound 24] and print it.
2.5

Retrieve IC50 measured for CC(C)(C)C(=O)NC1(C(=O)N2CCC[C@@H](C(=O)NCc3ccc(C#N)cc3OC(F)(F)F)C2)CC1 [Example Compound 27] and print it.
2.2
